- Test system: Klebsiella aerogenes
- experimental protocol: Chemosensitization of Enterobacter aerogenes CM-64 overexpressing AcrAB-TolC assessed as decrease in chloramphenicol MIC at 63 uM relative to control
- Type: functional
fold change (FC) values for the compounds below.
# answer = number (no unit)

Q: Look at this compound and give its reported fold change (FC). O=C(CN1C(=O)N/C(=C\c2ccccc2)C1=O)N1CCN(CCO)CC1
A: 2

Q: Look at this compound and give its reported fold change (FC). CCN(CC)c1ccc(/C=C2\NC(=O)N(CC(O)CN3CCN(CCO)CC3)C2=O)cc1 (stereo not given)
A: 4

Q: Look at this compound and give its reported fold change (FC). COc1ccc(/C=C2\NC(=O)N(CC(O)CNC(C)C)C2=O)c(OC)c1 (stereo not given)
A: 4

Q: Look at this compound and give its reported fold change (FC). COc1ccc(/C=C2\NC(=O)N(CC(O)CN3CCN(CCO)CC3)C2=O)c(OC)c1 (stereo not given)
A: 4

Q: Look at this compound and give its reported fold change (FC). CC(C)NCC(O)CN1C(=O)N/C(=C\c2ccc(Cl)cc2)C1=O (stereo not given)
A: 4
